System Name: HIV-1 NL4-3 Env on infected cells (HIV-1 group M subtype B, NL4-3 (pNL4-3 …, strain))

{"Binder": "c13217 (antibody, V domains shown) VH: QVQLVESGGGVVQPGKSLRLSCTASGFDVGHFTMHWVRQAPGKGLEWVGLTRTDGNTEEYADSVKGRFAISRDNSKNTLSLQLNNVRAEDTAVYYCAKERVPLTAYAFDYWGQGTLVTVSS VL: DIQMTQSPSSLSASVGDRVTITCRSSERIRTYVNWYQQKPGQAPQLLIYAASTLQNGVPSRFSGSGSGTVFTLTVNSLQPADFATYSCQQSYSLPWTFGQGTRVEVN", "binding result": "binds"}
{"Binder": "c11450 (antibody, V domains shown) V domain 1: EVQLAQSGAEMRKPGTTVRISCVISGHTTTDYYVHWVQQAPGKGPQWMGLINFEDANTVYSQSFRGRVSISADISEKTVFLDLTGLTSGDTALYFCTTHTLEKDSGDYVSAFDSWGQGTLLSVSP V domain 2: QSMLTQPPSISAVPGQKVIISCSGRTSNIGTNFVSWYQQVPGAAPRLLMYDNSNRPSGISDRFSGAKSGSTATLAITALQTEDEADYYCGSWDSGLNPPIFVFGPGTRVFVI", "binding result": "binds"}
